Attribute: ΔTm at 10 µM
molecular target: p53 Y220C mutant protein (amino acid residues 94-293) (Homo sapiens, UniProt P04637, Y220C); construct: p53 Y220C mutant protein (amino acid residues 94-293); test: Thermal Shift Assay (TSA), dTM; format: binding; conditions: 10 uM compound; p53 Y220C; read-out: TSA P53 Y220C dTM

Past entries and their recorded results:
CNC(=O)c1ccc(OC)c(NCC#Cc2nn3c(N[C@@H]4C[C@H]5CC[C@@H]([C@@H]4F)N5C)cccc3c2SC(F)(F)F)c1 = ≥ 10 °C
CNC(=O)c1ccc(OC)c(NCC#Cc2cc3c(N[C@@H]4CCNC[C@@H]4F)nccn3c2SC(F)(F)F)n1 = ≥ 10 °C
CNC(=O)c1ccc(OC)c(NCC#Cc2cc3c(N[C@@H]4CCN(C)C[C@@H]4F)nccn3c2SC(F)F)c1 = ≥ 10 °C
CNC(=O)c1ccc(NCC#Cc2cc3c(N[C@@H]4CCN(C)C[C@@H]4F)cccn3c2SC(F)(F)F)cc1 = ≥ 10 °C
CNC(=O)c1cnc(OC)c(NCC#Cc2nc3c(N[C@@H]4CCN(C)C[C@@H]4F)cccn3c2CC(F)(F)F)c1 = 5 to 10 °C
CNC(=O)c1ccc(OC)c(NCC#Cc2cc3c(N[C@@H]4CCN(CC#N)C[C@@H]4F)nccn3c2SC(F)(F)F)c1 = ≥ 10 °C

Query "CNC(=O)c1cnc(OC)c(NCC#Cc2nn3c(N[C@@H]4CCN(C)C[C@@H]4F)cccc3c2SC(F)F)c1" yields ΔTm at 10 µM of ≥ 10 °C

Query "CNC(=O)c1ccc(OC)c(NCC#Cc2nc3c(N[C@@H]4CCN(CCOC)C[C@@H]4F)cccn3c2SC(F)(F)F)c1" yields ΔTm at 10 µM of ≥ 10 °C

Query "CNC(=O)c1ccc(OC)c(NCC#Cc2nn3c(N[C@@H]4CN(C)C[C@@H]4F)cccc3c2SC(F)(F)F)n1" yields ΔTm at 10 µM of ≥ 10 °C

Query "CNC(=O)c1ccc(OC2COC2)c(NCC#Cc2cc3c(N[C@@H]4CCN(C)C[C@@H]4F)nccn3c2SC(F)(F)F)c1" yields ΔTm at 10 µM of ≥ 10 °C

Query "CNC(=O)c1ccc(NCC#Cc2cc3c(N[C@@H]4CCN(C)C[C@@H]4F)nccn3c2SC(F)(F)F)cc1" yields ΔTm at 10 µM of ≥ 10 °C

* * *

Attribute: Kd
target: p53 Y220C mutant protein (amino acid residues 94-293) (Homo sapiens, UniProt P04637, Y220C); construct: p53 Y220C mutant protein (amino acid residues 94-293); experiment: Surface Plasmon Resonance (SPR) assay, Kd_kinetic; assay type: binding; details: SPR, kinetic KD, p53 Y220C; read-out: SPR P53 Y220C KD kinetic

Past entries and their recorded results:
CNC(=O)c1ccc(NCC#Cc2nc3c(N[C@H]4CCn5cncc5C4)cccn3c2SC(F)(F)F)c(OC)c1 [Example 177] = < 10 nM
CNC(=O)c1ccc(NCC#Cc2nc3c(N[C@@H]4CCN(C)C[C@@H]4F)cccn3c2CC(F)(F)F)cc1 [Example 35] = < 10 nM
CCS(=O)(=O)c1ccc(NCC#Cc2nc3c(N[C@@H]4CCNC[C@@H]4F)cccn3c2SC(F)(F)F)c(OC)c1 [Example 80] = < 10 nM
CNC(=O)c1ccc(NCC#Cc2nc3c(N[C@@H]4CCC(=O)NC4)cccn3c2SC(F)(F)F)c(OC)c1 [Example 182] = 10 to 100 nM

Query COc1ccc(-c2ncc[nH]2)cc1NCC#Cc1nc2c(N[C@@H]3CCN(C)C[C@@H]3F)cccn2c1SC(F)(F)F [Example 220] yields Kd of < 10 nM

Query CNC(=O)c1cc(NCC#Cc2cc3c(N[C@@H]4CCN(C)C[C@@H]4F)nccn3c2SC(F)(F)F)c2nccn2c1 [Example 186] yields Kd of < 10 nM

Query CNC(=O)c1ccc(OC)c(NCC#Cc2nc3c(N[C@@H]4C[C@H]5CC[C@@H]([C@@H]4F)N5C)cccn3c2SC(F)(F)F)c1 [Example 199] yields Kd of < 10 nM

Query CNC(=O)c1ccc(NCC#Cc2nc3c(N[C@@H]4CCN(C)C[C@@H]4F)cccn3c2SC(F)(F)F)cc1 [Example 163] yields Kd of < 10 nM

Query CNC(=O)c1ccc(OC)c(NCC#Cc2nc3c(N[C@@H]4CCN(C)C[C@@H]4F)nccn3c2SC(F)(F)F)c1 [Example 212] yields Kd of < 10 nM

The reported numbers originate from patent US20260374766A1.
